Test system: Trypanosoma brucei brucei
experimental protocol: Antitrypanosomal activity against Trypanosoma brucei brucei assessed as trypanosome lysis using recombinant APOL1 protein G1 variant and measured by Alamar blue based fluorescene assay
Assay type: functional, organism-based
endpoint: IC50

>>> value_measured("CN(C(=O)CCc1c(-c2ccc(F)cc2)[nH]c2ccc(F)cc12)C1CCNC1=O (stereo not drawn)")
"250 nM"
>>> value_measured("O=C(CCc1c(-c2ccccc2)[nH]c2cc(F)cc(F)c12)N[C@@H]1C(=O)NC[C@H]1O")
"< 250 nM"
>>> value_measured("O=C(CCc1c(-c2ccc(F)cc2)[nH]c2c(F)cc(F)cc12)N[C@H]1CCNC1=O")
"< 250 nM"
>>> value_measured("[2H]C([2H])(C(=O)N[C@@H]1C(=O)NC[C@H]1O)C([2H])([2H])c1c(-c2ccc(F)cc2)[nH]c2c(F)cc(F)cc12")
"< 250 nM"
>>> value_measured("O=C(CCc1c(-c2ccc(F)cc2)[nH]c2c(Cl)cccc12)N[C@H]1CCNC1=O")
"< 250 nM"
>>> value_measured("O=C(CCc1c(-c2ccc(F)cc2)[nH]c2ccc(F)cc12)NC1CCNC1=O (stereo not drawn)")
"< 250 nM"
>>> value_measured("O=C(CCc1c(-c2ccc(F)cc2)[nH]c2c(F)cc(C(F)(F)F)cc12)N[C@@H]1C(=O)NC[C@H]1O")
"< 250 nM"
>>> value_measured("O=C1C[C@H](NC(=O)CCc2c(-c3ccc(F)cc3)[nH]c3c(F)cc(F)cc23)C(=O)N1")
"250 nM"
>>> value_measured("O=C(CCc1c(-c2ccccc2)[nH]c2c(F)c(F)c(F)cc12)N[C@@H]1C(=O)NC[C@H]1O")
"< 250 nM"
>>> value_measured("O=C(CCc1c(-c2ccc(C(F)(F)F)cc2)[nH]c2ccccc12)N[C@@H]1C(=O)NC[C@H]1O")
"< 250 nM"
>>> value_measured("O=C(CCc1c(-c2ccccc2)[nH]c2c(F)cccc12)N[C@@H]1C(=O)NC[C@H]1O")
"< 250 nM"
>>> value_measured("O=C(CCc1c(-c2ccccc2)[nH]c2ccc(Cl)cc12)N[C@@H]1C(=O)NC[C@H]1O")
"< 250 nM"
>>> value_measured("O=C(CCc1c(-c2ccccc2)[nH]c2c(Br)cccc12)N[C@@H]1C(=O)NC[C@H]1O")
"< 250 nM"
>>> value_measured("O=C(CCc1c(-c2ccccc2)[nH]c2c(F)cc(F)cc12)N[C@@H]1C(=O)NC[C@H]1O")
"< 250 nM"
>>> value_measured("N#Cc1ccc(-c2[nH]c3ccccc3c2CCC(=O)N[C@@H]2C(=O)NC[C@H]2O)cc1")
"< 250 nM"
>>> value_measured("O=C(CCc1c(-c2ccc(F)cc2)[nH]c2c(F)cc(F)cc12)N[C@@H]1CCNC1=O")
"< 250 nM"
>>> value_measured("O=C(CCc1c(-c2ccc(F)cc2)[nH]c2ccc(OCc3ccccc3)cc12)N[C@H]1CCNC1=O")
"250 nM"
>>> value_measured("O=C(CCc1c(-c2ccc(F)cc2)[nH]c2ccc(C(F)(F)F)cc12)N[C@@H]1C(=O)NC[C@H]1O")
"< 250 nM"

###

assayed system: Apolipoprotein L1 (Homo sapiens, UniProt O14791)
experimental protocol: Inhibition of APOL1 G1 variant in human HEK293-T-REx cells measured by Thallium assay
pIC50: −log10 of the molar value.
Form field: pIC50 (one value per entry).
endpoint: pIC50

>>> value_measured("O=C(CCc1c(-c2ccc(F)cc2)[nH]c2ccc(F)cc12)N[C@@H]1CCNC1=O")
6.60
>>> value_measured("O=C(CCc1c(-c2ccc(C(F)F)cc2)[nH]c2ccccc12)N[C@@H]1C(=O)NC[C@H]1O")
"> 6.60"
>>> value_measured("O=C(CCc1c(-c2ccc(OC(F)F)cc2)[nH]c2ccccc12)N[C@@H]1C(=O)NC[C@H]1O")
"> 6.60"
>>> value_measured("O=C(CCc1c(-c2ccc(F)cc2)[nH]c2c(F)cc(F)cc12)N[C@@H]1CCNC1=O")
6.60
>>> value_measured("Cc1ccc2[nH]c(-c3ccc(Br)cc3)c(CCC(=O)N[C@H]3CCNC3=O)c2c1")
"> 6.60"
>>> value_measured("O=C(CCc1c(-c2ccc(F)cc2)[nH]c2cc(F)c(F)cc12)N[C@@H]1C(=O)NC[C@H]1O")
"> 6.60"
>>> value_measured("COc1cccc2c(CCC(=O)N[C@H]3CCNC3=O)c(-c3ccc(F)cc3)[nH]c12")
"< 6.00"
>>> value_measured("O=C(CCc1c(-c2ccc(F)cc2)[nH]c2c(F)cc(OC(F)F)cc12)N[C@@H]1C(=O)NC[C@H]1O")
"> 6.60"
>>> value_measured("CN(C(=O)CCc1c(-c2ccc(F)cc2)[nH]c2ccc(F)cc12)C1CCNC1=O (stereo not drawn)")
6.60
>>> value_measured("Cc1c(F)ccc2c(CCC(=O)N[C@@H]3C(=O)NC[C@H]3O)c(-c3ccccc3)[nH]c12")
"> 6.60"
>>> value_measured("O=C(CCc1c(-c2ccc(F)cc2)[nH]c2c(F)cc(F)cc12)N[C@H]1C(=O)NC[C@H]1O")
6.60
>>> value_measured("CC(C)(O)c1cccc2c(CCC(=O)N[C@@H]3C(=O)NC[C@H]3O)c(-c3ccccc3)[nH]c12")
6.60
>>> value_measured("O=C(CSc1c(-c2ccc(F)cc2)[nH]c2ccccc12)N[C@@H]1C(=O)NC[C@H]1O")
"> 6.60"
>>> value_measured("Cc1ccc(-c2[nH]c3ccccc3c2CCC(=O)N[C@@H]2C(=O)NC[C@H]2O)cc1F")
"> 6.60"
>>> value_measured("O=C(CCc1c(-c2ccccc2)[nH]c2cc(F)c(F)cc12)N[C@@H]1C(=O)NC[C@H]1O")
"> 6.60"
>>> value_measured("O=C(CCc1c(-c2ccc(F)cc2)[nH]c2c(F)cc(F)cc12)N[C@H]1C(=O)NC[C@@H]1O")
6.60
>>> value_measured("O=C(CCc1c(-c2ccccc2)[nH]c2c(C3CC3)cccc12)N[C@@H]1C(=O)NC[C@H]1O")
"> 6.60"
>>> value_measured("CC(=O)O[C@@H]1CNC(=O)[C@H]1NC(=O)CCc1c(-c2ccc(F)cc2)[nH]c2c(F)cc(F)cc12")
"< 6.00"

###

assayed system: Apolipoprotein L1 (Homo sapiens)
experimental protocol: Inhibition of APOL1 G1 variant in human HEK293-T-REx cells measured by Thallium assay
endpoint: IC50

>>> value_measured("[2H]C(C(=O)N[C@@H]1C(=O)NC[C@H]1O)C([2H])c1c(-c2ccc(F)cc2)[nH]c2c(F)cc(F)cc12 (some centres undefined)")
"< 0.25 µM"
>>> value_measured("O=C(CCc1c(-c2ccc(F)cc2)[nH]c2ccccc12)N[C@H]1C(=O)NC[C@H]1O")
"0.25 µM"
>>> value_measured("Cc1ccc(-c2[nH]c3ccccc3c2CCC(=O)N[C@@H]2C(=O)NC[C@H]2O)c(F)c1")
"< 0.25 µM"
>>> value_measured("O=C(CCc1c(-c2cccc(F)c2)[nH]c2c(F)cc(F)cc12)N[C@@H]1C(=O)NC[C@H]1O")
"< 0.25 µM"

###

Form field: pIC50 (one value per entry).
assayed system: Apolipoprotein L1 (Homo sapiens)
experimental protocol: Inhibition of APOL1 G1 variant in human HEK293-T-REx cells measured by Thallium assay
pIC50: −log10 of the molar value.
endpoint: pIC50

>>> value_measured("O=C(CCc1c(-c2ccc(F)cc2)[nH]c2c(F)cc(C(F)(F)F)cc12)N[C@@H]1C(=O)NC[C@H]1O")
"> 6.60"
>>> value_measured("O=C(CCc1c(-c2ccc(F)cc2)[nH]c2c(F)cc(F)cc12)N[C@H]1C[C@H](CO)NC1=O")
"< 6.00"
>>> value_measured("O=C(CCc1c(-c2ccccc2)[nH]c2ccc(F)cc12)N[C@@H]1C(=O)NC[C@H]1O")
"> 6.60"
>>> value_measured("CC(CC(=O)N[C@H]1CCNC1=O)c1c(-c2ccc(F)cc2)[nH]c2c(F)cc(F)cc12 (stereo partly drawn)")
"< 6.00"
>>> value_measured("CC(C)c1cccc2c(CCC(=O)N[C@@H]3C(=O)NC[C@H]3O)c(-c3ccccc3)[nH]c12")
6.60
>>> value_measured("COc1cc(F)cc2c(CCC(=O)N[C@@H]3C(=O)NC[C@H]3O)c(-c3ccc(F)cc3)[nH]c12")
"> 6.60"
>>> value_measured("Cc1cc(F)ccc1-c1[nH]c2ccccc2c1CCC(=O)N[C@@H]1C(=O)NC[C@H]1O")
6.60
>>> value_measured("O=C(CCc1c(-c2ccc(F)cc2)[nH]c2c(F)cc(F)cc12)N[C@@H]1C(=O)NC[C@H]1O [INAXAPLIN]")
"> 6.60"
